- System: MARIMO
- assay_overview: cell viability relative to vehicle control; higher = less cytotoxic;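 note: after 48 h exposure read by CellTiter-Glo luminescence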
- stated_conditions: 10 µM; SRSF2 genotype: SRSF2 wt/wt
measured_parameter: cell viability (%)
Express it in %; write the number only.

INSERT INTO measurements (compound, reading) VALUES
  ('O=C(O)C1=C(CSc2nnnn2CS(=O)(=O)O)CS[C@@H]2[C@H](NC(=O)[C@H](O)c3ccccc3)C(=O)N12 [Cefonicid sodium]', 108);

q: Provide the documented cell viability with MARIMO as the system for "Cc1ncc([N+](=O)[O-])n1C"
a: 106

q: Item: "O=C(c1cccc(Cl)c1F)N1CCN(Cc2cccc(Nc3nccs3)n2)CC1" Test system: MARIMO Read-out: cell viability Value: ?
a: 91.5

q: I'm curious: which cell viability was measured for CC(C)CCNC(=O)[C@H](CC(C)C)NC(=O)[C@H]1O[C@@H]1C(=O)O [Loxistatin Acid (E-64C)] tested on MARIMO?
a: 104

q: Give the reported cell viability for OC[C@H]1OC(O)[C@H](O)[C@@H](O)[C@H]1O (some centres undefined) (system: MARIMO).
a: 105

q: Item CN(C)CCc1c[nH]c2ccc(C[C@H]3COC(=O)N3)cc12 [Zolmitriptan (Zomig)] with MARIMO - cell viability?
a: 102

q: Form entry - test system: MARIMO; read-out: cell viability; compound: "Cc1ccc(-n2nc(C(C)(C)C)cc2NC(=O)Nc2ccc(OCCN3CCOCC3)c3ccccc23)cc1"
a: 104

----------
- Test system: OCI-AML2
- assay_overview: cell viability relative to vehicle control; higher = less cytotoxic
- stated_conditions: 10 µM; SRSF2 genotype: P95H/wt
Counter-ions that a name gives are not always drawn.
Doc: threshold 80% (exclusive). Items with cell viability beneath it return 1.0; others return 0.0.

Here's what some known entries look like.
INSERT INTO results (compound, qualitative_label) VALUES
  ('COc1ccc(NC(=O)c2ccc(C(=N)N(C)C)cc2)c(C(=O)Nc2ccc(Cl)cn2)c1 [Betrixaban]', 0.0),
  ('Cc1cc(CN2CCN(c3c(Br)cnc4nc(-c5ccc(N6CCN(C)CC6)cc5)[nH]c34)CC2)no1', 1.0),
  ('C=C1CCOC1=O [2-Methylenebutyrolactone]', 0.0),
  ('CCN(CC)CCOc1ccc(C(=C(Cl)c2ccccc2)c2ccccc2)cc1 [Clomifene citrate (Serophene)]', 1.0),
  ('CCC[C@H](Nc1nc(-c2ccc(NC(=O)NCC)c(OC)c2)ncc1C)c1cccnc1', 1.0);

q: Strictly below 80%: is that where cell viability of COC(=O)c1ccc(O)c(O)c1 [Methyl protocatechuate] sits?
a: 0.0

q: Here's an entry: COc1ccc2cc3[n+](cc2c1OC)CCc1cc2c(cc1-3)OCO2 [Berberine] . Is its cell viability below 80%?
a: 1.0

----------
- Tested on: OCI-AML2
- assay_overview: cell viability relative to vehicle control; higher = less cytotoxic
- stated_conditions: 10 µM; SRSF2 genotype: wt/wt
Where a name gives a salt, the structure may show the parent alone.
measured_parameter: cell viability (%)
Only the number, expressed in %, is required.

Field: example entries. Status: answers known.
INSERT INTO results (compound, measured_parameter, reading) VALUES
  ('CC1CCCCCCCCCCCCC(=O)C1 (stereo not drawn)', 'cell viability', 90.7),
  ('CC1(C)[C@@H](O[C@H]2O[C@H](C(=O)O)[C@@H](O)[C@H](O)[C@H]2O[C@@H]2O[C@H](C(=O)O)[C@@H](O)[C@H](O)[C@H]2O)CC[C@]2(C)[C@H]3C(=O)C=C4[C@@H]5C[C@@](C)(C(=O)O)CC[C@]5(C)CC[C@@]4(C)[C@]3(C)CC[C@@H]12 [Diammonium Glycyrrhizinate]', 'cell viability', 114),
  ('CC(C)c1cc2c(N3CCN(C4=NCC(C)(C)S4)CC3)ncnc2s1', 'cell viability', 45.1),
  ('CNC(=O)c1ccc(-c2cnc3ncc(Cc4ccc5ncccc5c4)n3n2)cc1F', 'cell viability', 110),
  ('Cc1cn([C@H]2C[C@H](N=[N+]=[N-])[C@@H](CO)O2)c(=O)[nH]c1=O [Zidovudine (Retrovir)]', 'cell viability', 105);

q: Quick one: cell viability of COc1ccc(C2=NC(c3ccc(Cl)cc3)C(c3ccc(Cl)cc3)N2C(=O)N2CCNC(=O)C2)c(OC(C)C)c1 (stereo not drawn) ?
a: 89.8

q: Endpoint output: cell viability of "CC(C)c1c(C(=O)Nc2ccccc2)c(-c2ccccc2)c(-c2ccc(F)cc2)n1CC[C@@H](O)C[C@@H](O)CC(=O)O" . Value?
a: 45.6

q: // cell viability lookup, key: "CS(=O)(=O)c1ccc(C2=C(c3ccccc3)C(=O)OC2)cc1"
a: 98.8

q: Dear colleague, I am looking for the recorded cell viability of the following compound: "CC(C)(CCCCCC(O)CCCCCC(C)(C)C(=O)O)C(=O)O"
a: 108

q: Which cell viability value belongs to COc1c/c(=C2\C=c3ccccc3=N2)[nH]/c1=C\c1[nH]c(C)cc1C [Obatoclax mesylate (GX15-070)] ?
a: 13.3

q: Given CC(C(=O)O)c1ccc2c(c1)CC(=O)c1ccccc1S2 (stereo not drawn) , state its recorded cell viability.
a: 104

q: What does the record list as cell viability for NN1CC(=O)NC1=O [1-Aminohydantoin Hydrochloride] ?
a: 106

q: Please look up its cell viability: Cc1nc(C)c(C)nc1C [Ligustrazine hydrochloride]
a: 107
